meta.source: the RNAGym collection of RNA variant scans (doi:10.1073/pnas.2313332121)

B1: TPR 5TU (parent)
chain: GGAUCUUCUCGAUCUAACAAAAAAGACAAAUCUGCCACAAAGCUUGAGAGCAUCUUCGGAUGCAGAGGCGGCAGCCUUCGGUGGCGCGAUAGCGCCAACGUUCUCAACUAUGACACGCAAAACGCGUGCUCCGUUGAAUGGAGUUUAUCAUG

variants of: B1; assay: polymerase ribozyme fitness, log enrichment relative to wild type (log ratio); higher = more active; in vitro selection for triplet polymerase activity
Variants at the floor of the assay were thinned out.
METRIC NAME: polymerase ribozyme fitness (log ratio)
Give bare numbers.

Use the examples below as a reference point.
U6A A19C U56A G83A G124C | -1.45
U6C C96G C105U | -0.764

Return reported polymerase ribozyme fitness (log ratio) values for all items listed beneath this line.
1. C95U U146G
2. G94C C105G C116A
3. G94U U148C
4. A41U A47U C93G
5. A28C A30U C35G C87A C105U
6. C5U C93U
7. G94U G140U
8. C14U G143A

[-1.04, -2.89, -2.92, -4.14, -3.84, 0.375, -3.84, -1.26]

Return reported polymerase ribozyme fitness (log ratio) values for all items listed beneath this line.
1. C35U C95A C105G
2. C35U U135G
3. G58C G126U U145G

1. -2.51
2. -3.62
3. -3.82
